- tgt: human adenosine A2A receptors (Homo sapiens, UniProt P29274)
- Construct: host or cells: HEK-293
- Sequence (P29274 whole entry): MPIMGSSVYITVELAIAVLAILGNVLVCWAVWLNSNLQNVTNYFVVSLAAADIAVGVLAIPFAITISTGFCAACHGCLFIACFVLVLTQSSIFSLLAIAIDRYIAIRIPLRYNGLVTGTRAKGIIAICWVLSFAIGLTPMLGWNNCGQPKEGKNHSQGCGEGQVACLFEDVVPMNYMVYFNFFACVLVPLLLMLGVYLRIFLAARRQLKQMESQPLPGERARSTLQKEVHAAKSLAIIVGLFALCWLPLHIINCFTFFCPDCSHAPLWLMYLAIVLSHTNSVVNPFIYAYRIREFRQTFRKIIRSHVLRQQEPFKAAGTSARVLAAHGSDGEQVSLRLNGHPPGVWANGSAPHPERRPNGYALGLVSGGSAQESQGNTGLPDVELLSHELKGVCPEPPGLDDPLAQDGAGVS
- test.summary: Adenosine receptor binding: binding affinities at hA2A receptors ([3H]CGS-21680 displacement)
- condition.parameters: Table 2; comparative compounds of WO 02/055083; read-out: Binding Affinity hA2A-Ki
# Ki annotations

>  <molecule>
CC(C)OCc1cccc(Cn2nnc3c(-c4ccco4)nc(N)nc32)n1 [WO 02/055083 Example 247, reference compound]

>  <Ki [nM]>
3

$$$$
>  <molecule>
Nc1cccc(Cn2nnc3c(-c4ccccc4)nc(N)nc32)c1 [WO 02/055083 Example 151, reference compound]

>  <Ki [nM]>
5.3

$$$$
>  <molecule>
Cl.Nc1nc(-c2ccco2)c2nnn(Cc3cccc(CO)n3)c2n1 [WO 02/055083 Example 213, hydrochloride, reference compound]

>  <Ki [nM]>
2.7

$$$$
>  <molecule>
COCc1cccc(Cn2nnc3c(-c4ccc(C)o4)nc(N)nc32)n1 [WO 02/055083 Example 183, reference compound]

>  <Ki [nM]>
1.3

$$$$
>  <molecule>
CC(C)COCc1cccc(Cn2nnc3c(-c4ccco4)nc(N)nc32)n1 [WO 02/055083 Example 217, reference compound]

>  <Ki [nM]>
2.9

$$$$

====

The following compounds are listed with their measured pKi values.
- tgt: human adenosine A1 receptors (Homo sapiens)
- Construct: expressed in transfected cells; host or cells: CHO-K1
- Sequence (P30542 1-326): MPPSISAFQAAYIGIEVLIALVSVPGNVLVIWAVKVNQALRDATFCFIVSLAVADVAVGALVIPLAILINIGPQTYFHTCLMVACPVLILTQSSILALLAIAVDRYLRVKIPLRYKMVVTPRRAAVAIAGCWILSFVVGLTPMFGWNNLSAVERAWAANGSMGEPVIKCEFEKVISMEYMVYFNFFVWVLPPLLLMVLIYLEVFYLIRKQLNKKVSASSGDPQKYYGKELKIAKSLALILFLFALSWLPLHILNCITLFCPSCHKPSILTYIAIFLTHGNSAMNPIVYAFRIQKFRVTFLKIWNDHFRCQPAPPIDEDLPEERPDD
- test.summary: Adenosine receptor binding: binding affinities at hA1 receptors ([3H]DPCPX displacement)
- condition.parameters: Table 1; [3H]DPCPX displacement, CHO-K1 membranes; read-out: Binding Affinity hA1-Ki
pKi: −log10 of the molar value.

>  <compound>
CC(C)(O)c1cccc(Cn2nnc3c(-c4ccccc4)nc(N)nc32)n1 [Example 8]

>  <tgt>
human adenosine A1 receptors (Homo sapiens)

>  <pKi>
6.67

$$$$
>  <compound>
Cc1ccc(-c2nc(N)nc3c2nnn3Cc2cccc(COCC(F)(F)F)n2)o1 [Example 37]

>  <tgt>
human adenosine A1 receptors (Homo sapiens)

>  <pKi>
6.64

$$$$
>  <compound>
Cc1ccc(-c2nc(N)nc3c2nnn3Cc2cccc(C3(O)CCCCC3)n2)o1 [Example 4]

>  <tgt>
human adenosine A1 receptors (Homo sapiens)

>  <pKi>
6.71

$$$$
>  <compound>
CC(C)(O)c1cccc(Cn2nnc3c(-c4cccc(C#N)c4)nc(N)nc32)n1 [Example 20]

>  <tgt>
human adenosine A1 receptors (Homo sapiens)

>  <pKi>
6.14

$$$$
>  <compound>
CCOCCOCc1cccc(Cn2nnc3c(-c4ccc(C)o4)nc(N)nc32)n1 [Example 32]

>  <tgt>
human adenosine A1 receptors (Homo sapiens)

>  <pKi>
6.48

$$$$

====

- tgt: hA2B receptors (Homo sapiens, UniProt P29275)
- Construct: host or cells: HEK-293
- Sequence (P29275 1-332): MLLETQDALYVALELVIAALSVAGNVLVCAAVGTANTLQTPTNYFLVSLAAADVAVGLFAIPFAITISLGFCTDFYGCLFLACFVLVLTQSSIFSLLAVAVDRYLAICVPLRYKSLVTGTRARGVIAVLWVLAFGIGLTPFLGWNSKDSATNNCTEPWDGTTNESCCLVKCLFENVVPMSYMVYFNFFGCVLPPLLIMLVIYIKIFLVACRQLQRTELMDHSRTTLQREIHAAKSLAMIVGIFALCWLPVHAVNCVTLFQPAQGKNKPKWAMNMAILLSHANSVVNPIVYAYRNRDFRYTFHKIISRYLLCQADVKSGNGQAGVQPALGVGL
- test.summary: Adenosine receptor binding: binding affinities at hA2B receptors ([3H]-ZM241385 displacement)
- condition.parameters: Table 1; ratio of Ki values
Each entry below carries its recorded Binding Selectivity A2b/A2a.
readout.type: Binding Selectivity A2b/A2a

>  <molecule>
Cc1csc(-c2nc(N)nc3c2nnn3Cc2cccc(C3(O)CCCC3)n2)n1 [Example 27]

>  <readout.type>
Binding Selectivity A2b/A2a

>  <numeric.value>
510

$$$$
>  <molecule>
COc1cccc(-c2nc(N)nc3c2nnn3Cc2cccc(C3(O)CCC3)n2)c1 [Example 17]

>  <readout.type>
Binding Selectivity A2b/A2a

>  <numeric.value>
472

$$$$
>  <molecule>
COCc1cccc(Cn2nnc3c(-c4ccccc4)nc(N)nc32)n1 [Example 12]

>  <readout.type>
Binding Selectivity A2b/A2a

>  <numeric.value>
354

$$$$
>  <molecule>
Cc1ccc(-c2nc(N)nc3c2nnn3Cc2cccc(C3(O)CCC3)n2)o1 [Example 6]

>  <readout.type>
Binding Selectivity A2b/A2a

>  <numeric.value>
1216

$$$$

====

- tgt: human adenosine A1 receptors (Homo sapiens)
- Construct: expressed in transfected cells; host or cells: CHO-K1
- test.summary: Adenosine receptor binding: binding affinities at hA1 receptors ([3H]DPCPX displacement)
- condition.parameters: Table 1; ratio of Ki values
Binding Selectivity A1/A2a of 80 or higher: True. Under 80: False.

>  <compound>
N#Cc1cccc(-c2nc(N)nc3c2nnn3Cc2cccc(C3(O)CCCC3)n2)c1 [Example 21]

>  <group.label>
True

$$$$
>  <compound>
Nc1nc(-c2ccccc2)c2nnn(Cc3cccc(C4(O)CCC4)n3)c2n1 [Example 11]

>  <group.label>
False

$$$$
>  <compound>
N#Cc1cccc(-c2nc(N)nc3c2nnn3Cc2cccc(C3(O)CCC3)n2)c1 [Example 23]

>  <group.label>
True

$$$$
>  <compound>
COCc1cccc(Cn2nnc3c(-c4nc(C)cs4)nc(N)nc32)n1 [Example 30]

>  <group.label>
True

$$$$
>  <compound>
Cc1ccc(-c2nc(N)nc3c2nnn3Cc2cccc(C3(O)CCCC3)n2)o1 [Example 3]

>  <group.label>
True

$$$$
>  <compound>
COC(C)(C)OCc1cccc(Cn2nnc3c(-c4ccc(C)o4)nc(N)nc32)n1 [Example 36]

>  <group.label>
True

$$$$
>  <compound>
CCOCCOCc1cccc(Cn2nnc3c(-c4ccc(C)o4)nc(N)nc32)n1 [Example 32]

>  <group.label>
False

$$$$
>  <compound>
COc1cccc(-c2nc(N)nc3c2nnn3Cc2cccc(C3(O)CCC3)n2)c1 [Example 17]

>  <group.label>
False

$$$$
>  <compound>
CC(C)(O)c1cccc(Cn2nnc3c(-c4cccc(C#N)c4)nc(N)nc32)n1 [Example 20]

>  <group.label>
False

$$$$
>  <compound>
Nc1nc(-c2ccccc2)c2nnn(Cc3cccc(CO[C@H]4CCOC4)n3)c2n1 [Example 7]

>  <group.label>
False

$$$$
>  <compound>
Cc1ccc(-c2nc(N)nc3c2nnn3Cc2cccc(COCC3CCOC3)n2)o1 (racemic) [Example 34]

>  <group.label>
False

$$$$
>  <compound>
Cc1csc(-c2nc(N)nc3c2nnn3Cc2cccc(C3(O)CCCC3)n2)n1 [Example 27]

>  <group.label>
True

$$$$
>  <compound>
COCc1cccc(Cn2nnc3c(-c4ccccc4)nc(N)nc32)n1 [Example 12]

>  <group.label>
True

$$$$
>  <compound>
Cc1ccc(-c2nc(N)nc3c2nnn3Cc2cccc(COCC3CCCO3)n2)o1 (centres unmarked) [Example 33]

>  <group.label>
False

$$$$
>  <compound>
Cc1ccc(-c2nc(N)nc3c2nnn3Cc2cccc(C3(O)CCOCC3)n2)o1 [Example 5]

>  <group.label>
True

$$$$
>  <compound>
Nc1nc(-c2nccs2)c2nnn(Cc3cccc(CO[C@H]4CCOC4)n3)c2n1 [Example 38]

>  <group.label>
False

$$$$
>  <compound>
CC(C)(O)c1cccc(Cn2nnc3c(-c4ccccc4)nc(N)nc32)n1 [Example 8]

>  <group.label>
False

$$$$
>  <compound>
COc1cccc(-c2nc(N)nc3c2nnn3Cc2cccc(C(C)(C)O)n2)c1 [Example 14]

>  <group.label>
True

$$$$
>  <compound>
Cc1ccc(-c2nc(N)nc3c2nnn3Cc2cccc(C(C)(C)O)n2)o1 [Example 2]

>  <group.label>
True

$$$$
>  <compound>
Cc1ccc(-c2nc(N)nc3c2nnn3Cc2cccc(C3(O)CCCCC3)n2)o1 [Example 4]

>  <group.label>
False

$$$$
>  <compound>
Cc1ccc(-c2nc(N)nc3c2nnn3Cc2cccc(COCC(F)(F)F)n2)o1 [Example 37]

>  <group.label>
False

$$$$
>  <compound>
Cc1ccc(-c2nc(N)nc3c2nnn3Cc2cccc(C3(O)CCC3)n2)o1 [Example 6]

>  <group.label>
True

$$$$
>  <compound>
Nc1nc(-c2ccccc2)c2nnn(Cc3cccc(C4(O)CCCC4)n3)c2n1 [Example 9]

>  <group.label>
False

$$$$

Numbers sourced from patent US11466019B2.
